# assay.details: NCI Yeast Anticancer Drug Screen. Data for the rad50 strain (AID 155)
# test.parameters: S. cerevisiae rad50 strain growth inhibition; at 50.0 µM
About 79,000 compounds went through this panel and 15% of them were active in at least one assay; those are over-represented in the sample as a whole. Calls of active or inactive are those of the source. Rule as the data show it: active = growth inhibition above about 70%; inactive = the rest.
Possible outcomes: active, inactive

- O=C1C=Cc2ccccc2/C1=C/c1nc(-c2ccccc2)oc1O: active
- CC12CCC(O)CC1=CCC1C2CCC2(C)C3=NN=CC3CC12 (centres undefined): active
- S=C=Nc1ccc(N2CCOCC2)cc1: active
- CCCCOS(=O)(=O)c1ccccc1: inactive
- CCOC(=O)c1cc(CC)sc1NC(=O)CC(C)=O: inactive
- O=C(c1ccccc1)c1ccc(O)c2ncccc12: active
- Clc1ccc(Cc2nc3ccccc3s2)cc1: active
- CCOc1cc2c(cc1O)/C(=N\OC)C[C@@H]1[C@@H]2CC[C@]2(C)[C@@H](O)CC[C@@H]12: inactive
- On1c(-c2ccccc2)nc2ccccc2c1=S: active
- O=C(NOC(=O)c1ccccc1)c1ccccc1: active
- Cc1ccc(Nc2n[nH]c(=S)s2)cc1F: active
- O=C(C[P+](c1ccccc1)(c1ccccc1)c1ccccc1)c1ccccc1: inactive
- O=C(c1ccccc1)C(Br)[N+](=O)[O-] (centres undefined): active
- O=C1C=CC(=O)N1c1cccc2c1CCCC2: active

###

# assay.details: NCI Yeast Anticancer Drug Screen. Data for the cln2 rad14 strain (AID 165)
# test.parameters: S. cerevisiae cln2 rad14 strain, at 5.0 µM (retest, dose inferred, filed as 0.5)
Compounds without any hit were thinned out: in the full panel of roughly 79,000, 15% have a hit. Calls of active or inactive are those of the source. No stated cut-off is given here; in the data, active means growth inhibition above about 70%; inactive means the rest.
Possible outcomes: active, inactive

* CC1(C)CCC[C@]2(C)[C@@H](C=O)C(C=O)=CC[C@@H]12 | inactive
* CC12CCC(O)CC1=CCC1C2CCC2(C)C3=NN=CC3CC12 (stereo not given) | inactive
* OC(c1cc(C23CC4CC(CC(C4)C2)C3)nc2c(Cl)cc(Cl)cc12)C1CCCCN1 (stereo not given) | active
* COc1cc(-c2ccc(-[n+]3nc(-c4ccc([N+](=O)[O-])cc4)nn3-c3ccc([N+](=O)[O-])cc3)c(OC)c2)ccc1-[n+]1nc(-c2ccc([N+](=O)[O-])cc2)nn1-c1ccc([N+](=O)[O-])cc1 | active
* CCCCC(CC)CNC(=O)CI (stereo not given) | inactive
* COC1CC(C)C(OC)c2cc(O)cc(c2O)NC(=O)/C(C)=C/C=C\C(C)C(OC(N)=O)/C(C)=C\C(C)C1OC (stereo not given) | active
* Cc1ccc2c(c1)sc(-c1ccc(N(C)C)cc1)[n+]2C | active
* Oc1ccc(Cc2cccc(Cl)c2)c(O)c1 | inactive
* CCOC(=O)c1[nH]c(C#N)c(C(=O)OCC)c1C | inactive
* CC1CC(C)(C)OB(OC(C)CC(C)(C)OB2OC(C)CC(C)(C)O2)O1 (stereo not given) | inactive
* CCCCC(C=O)(C=C=C(C)C)CC (stereo not given) | inactive
* CCCCCC/C=C1\CCC(CN2CCCC2)C1=O (stereo not given) | active
* CN(C)CCN(C)CC(C)(C)C(=O)/C=C/c1ccc(Cl)c(Cl)c1 | inactive
* Oc1cc(Cl)ccc1Cc1ccc(Cl)cc1O | active
* NNc1ccc(Cl)cc1Cl | active
* COC(=O)C(=[N+]=[N-])C(=O)c1ccc([N+](=O)[O-])o1 | inactive
* C(CCc1nn[nH]n1)CCC1CCCCC1 | inactive
* CCOc1ccc(C(C[N+](=O)[O-])Sc2ccccc2N)cc1 (stereo not given) | inactive
* COc1ccc2c(c1)c(CC(=O)O)c(C)n2C(=O)c1ccc(Cl)cc1 | inactive
* C=C1C(=O)OC2CC3(C)CCCC(C)C3=CC12 (stereo not given) | inactive
* CC[n+]1ccc(Nc2ccc(NC(=O)c3ccc(Nc4cc[n+](CC)c5ccc([N+](=O)[O-])cc45)cc3)cc2)cc1 | active
* O=C/C=C/c1ccc([N+](=O)[O-])cc1 | inactive
* O=C1C=CC(=O)N1C1CCCCCCCCCCC1 | inactive
* Cc1cc(N/N=C/c2ccccn2)nc2ccccc12 | inactive
* Cc1cc2cccnc2c2ncccc12 | inactive
* CC(CSc1n[nH]c(=S)s1)c1ccccc1 (stereo not given) | inactive
* C=CC(=O)OCCOCc1ccccc1 | inactive
* Oc1ccc(/C=C/c2ccc(Cl)cc2)cc1 | inactive
* CC1(C)OC2C(COC(c3ccccc3)(c3ccccc3)c3ccccc3)OC(c3c[nH]c4c(N)ncnc34)C2O1 (stereo not given) | inactive
* CC1(C)N=c2cc3c(cc2N1c1ccc(Cl)cc1)=Nc1ccccc1N3c1ccc(Cl)cc1 | inactive
* CC(C)(C)c1ccc(O)c(Br)c1 | inactive
* CCN(CC)CCNc1ccc([N+](=O)[O-])c2sc3ccccc3c(=O)c12 | inactive
* C[n+]1ccccc1C[n+]1ccccc1 | inactive
* O=C(O)c1cccc2cccc(-c3c4ccc(=O)c(O)c-4oc4c(O)c(O)ccc34)c12 | inactive
* O=C(/C(Cl)=N/O)c1ccc(-c2ccccc2)cc1 | inactive
* CCCCCCCCCCCCN1C(C)=CS/C1=C\C=C\c1scc(C)[n+]1CCCCCCCCCCCC | inactive
* CC(C)(C)c1ccc(CCO)cc1 | inactive
* CCCCCCCCCCCC(=O)OC(C)C(=O)NCCCC (stereo not given) | inactive
* O=[N+]([O-])C=C(c1ccccc1)c1ccccc1 | inactive
* CC1(C)CCC2(C(=O)O)C(O)CC3(C)C(=CCC4C5(C)CCC(OC6OCC(O)C(O)C6OC6OCC(O)C(O)C6OC6OCC(O)C(OC7OC(CO)C(O)C(O)C7O)C6O)C(C)(C)C5CCC43C)C2C1 (stereo not given) | inactive
